# target_entity: HpNikR T92A (Helicobacter pylori G27, UniProt A1YSQ9 1-148, T92A)
# assay_comment: fluorescence anisotropy; Ni(II)-bound; FA: 5 nM DNA, 20 mM Tris pH 7.6, 100 mM NaCl, 3 mM MgSO4, temperature not stated (Ni loading 1.2 eq NiSO4 per monomer at RT). EMSA: 20 mM Tris pH 7.5, 100 mM KCl, 3 mM MgCl2, 0.1% IGEPAL, 5% glycerol, 0.1 mg/ml herring sperm DNA, RT; gel with 800 uM NiSO4 at 4 C
# test_context: protein: recombinant; tags: none stated; chain copies: 4; label: fluorescein on internal thymine (T14 of strand 1); blunt
measure_name: Kd (nM)
Answers are plain numbers, in nM.

binder: ureA promoter 32 bp (FA) (dsDNA) DNA 1: ATATAACACTAATTCATTTTAAATAATAATTA DNA 2: TAATTATTATTTAAAATGAATTAGTGTTATAT
Kd, nM: 3.6

As a next step, examine the binder that follows.
Prompt line: Can you look up the measured Kd of ureA-perf promoter 32 bp (dsDNA) DNA 1: ATATATTATTAATTCATTTTAAATAATAATTA DNA 2: TAATTATTATTTAAAATGAATTAATAATATAT for me?
Response line: 2.6
